Cited source for all entries: patent US20220009967A1

- target-entity: Mycobacterial ClpC1-NTD (Mycobacterium tuberculosis, UniProt P9WPC9)
- Construct: caseinolytic protein C1 (ClpC1) N-terminal domain (NTD)
- Sequence (P9WPC9 2-144): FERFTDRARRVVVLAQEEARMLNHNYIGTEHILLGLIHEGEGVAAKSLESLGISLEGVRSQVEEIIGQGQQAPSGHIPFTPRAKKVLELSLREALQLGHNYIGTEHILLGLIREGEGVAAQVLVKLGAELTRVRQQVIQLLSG
- test-name: SPR binding affinity to ClpC1-NTD
- condition: SPR, ClpC1 N-terminal domain; Table 3, unit inferred; read-out: KD NTD
# maps each entry to its pKd
# pKd: negative log10 of molar concentration; output just the value

// known answers, use as guide
molecule: C/C=C/C[C@@H]1NC(=O)[C@H](CC(C)C)N2C(=O)[C@H](C[C@@H](C)[C@@H]2O)N(C)C(=O)[C@H](C)NC(=O)[C@H](Cc2ccc(O)c([N+](=O)[O-])c2)NC(=O)[C@H](CC(C)C)N(C)C(=O)[C@H](Cc2cn(C(C)(C)[C@H]3CO3)c3ccccc23)NC1=O [rufomycin 35]
target-entity: Mycobacterial ClpC1-NTD (Mycobacterium tuberculosis, UniProt P9WPC9)
val: 6.73

molecule: C/C=C/C[C@@H]1NC(=O)[C@H](CC(C)C)N2C(=O)[C@H](C[C@H](C)[C@H]2O)N(C)C(=O)[C@H](C)NC(=O)[C@H](Cc2ccc(O)c([N+](=O)[O-])c2)NC(=O)[C@H](CC(C)C)N(C)C(=O)[C@H](Cc2cn(C(C)(C)[C@H]3CO3)c3ccccc23)NC1=O [rufomycin 32]
target-entity: Mycobacterial ClpC1-NTD (Mycobacterium tuberculosis, UniProt P9WPC9)
val: 7.49

molecule: C/C=C/C[C@@H]1NC(=O)[C@H](CC(C)C)N2C(=O)[C@H](C[C@H](C)[C@@H]2O)N(C)C(=O)[C@H](C)NC(=O)[C@H](Cc2ccc(O)c([N+](=O)[O-])c2)NC(=O)[C@H](CC(C)C)N(C)C(=O)[C@H](Cc2cn(C(C)(C)[C@H]3CO3)c3ccccc23)NC1=O [rufomycin 33]
target-entity: Mycobacterial ClpC1-NTD (Mycobacterium tuberculosis, UniProt P9WPC9)
val: 7.54

--- query ---
Which pKd reading was recorded for the molecule C/C=C/C[C@@H]1NC(=O)[C@H](CC(C)C)N2C(=O)[C@H](C[C@@H](C)[C@H]2O)N(C)C(=O)[C@H](C)NC(=O)[C@H](Cc2ccc(O)c([N+](=O)[O-])c2)NC(=O)[C@H](CC(C)C)N(C)C(=O)[C@H](Cc2cn(C(C)(C)[C@H]3CO3)c3ccccc23)NC1=O [rufomycin 34] ?
6.74
